# System name: T1, Anti-CD28 Fab (SEQ ID NOs: 696, 697)
# T1 construct: Biotinylated and captured on neutravidin coated plates in the phage ELISA
# T1 sequence (VH, as listed by the source, chain 1 of 2): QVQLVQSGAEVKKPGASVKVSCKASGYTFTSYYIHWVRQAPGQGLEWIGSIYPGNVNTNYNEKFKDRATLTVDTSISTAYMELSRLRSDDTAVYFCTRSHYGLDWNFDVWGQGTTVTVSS
# T1 sequence (VL, as listed by the source, chain 2 of 2): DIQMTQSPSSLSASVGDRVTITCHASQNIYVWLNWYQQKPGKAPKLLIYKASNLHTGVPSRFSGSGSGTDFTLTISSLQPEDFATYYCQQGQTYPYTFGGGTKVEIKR
# Test details: phage binding ELISA; Fab-coated wells pre-incubated with CD28 antigen as competitor, anti-M13 HRP detection;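 also: crude clonal phage supernatants from panned colonies added to wells after blocking buffer plus CD28 treatment, bound phage measured after a brief incubation and washing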
// returns no (0) unless Anti-CD28 Fab signal in the presence of CD28 (phage binding ELISA) is strictly below 0.07, in which case yes (1)

1. YCEGHLPEYRNKCL (peptide, not shown: large carriers, Clonal phage of the Peptide-87 optimisation library, tested as crude supernatant) [Phage-493]	no (0)
2. YCWSHSPPFIKKCY (peptide, not shown: large carriers, Clonal phage of the Peptide-87 optimisation library, tested as crude supernatant) [Phage-492]	yes (1)
3. YCEGHLPEYLAKCL (peptide, not shown: large carriers, Clonal phage of the Peptide-87 optimisation library, tested as crude supernatant) [Phage-488]	no (0)

Now examine the next entry.
# strict comparison: is reported Anti-CD28 Fab signal in the presence of CD28 (phage binding ELISA) < 0.07? input = YCEGHLPEYIWKCL (peptide, not shown: large carriers, Clonal phage of the Peptide-87 optimisation library, tested as crude supernatant) [Phage-496] no (0)
